- SYSTEM UNDER TEST: Zinc finger protein mex-5 (Caenorhabditis elegans)
- PROCEDURE TEXT: MEX-5 RNA-binding inhibition confirmation – biochemical, C. elegans, fluorescence polarization, dose retest (AID 449745);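 further: potency is for blocking Mex-5 binding to labeled TCR2 RNA like unlabeled competitor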
- COND: Mex-5 / TCR-2 RNA binding
Results filed as inconclusive are left out. Active and inactive are the calls of the source. How the calls were made is not given here.
Choose one outcome from this list and give only that: active, inactive

Data request: Assay result, entry CC(C)C1Nc2ccc(C(=O)O)cc2C2C=CCC21 (stereo not drawn) — outcome?
Data returned: inactive

Data request: Assay result, entry C/C(=N/Nc1ccc(C(=O)O)cc1)c1ccc(O)c(O)c1O — outcome?
Data returned: active

Data request: Assay result, entry Nc1ccc(N(CCO)CCO)cc1 — outcome?
Data returned: inactive

Data request: Assay result, entry CC1(C)CC(=O)C2=C(C1)OC(N)=C(C#N)C2c1ccccc1[N+](=O)[O-] (stereo not drawn) — outcome?
Data returned: inactive

Data request: Assay result, entry CC(C)(O)C(=O)NNC(=S)NCc1ccco1 — outcome?
Data returned: active

Data request: Assay result, entry O=C(N/N=C/c1oc(O)c2ccccc12)c1ccccc1O — outcome?
Data returned: inactive

Data request: Assay result, entry COc1ccccc1-n1c(C)nc2cc(C(=O)NCc3ccc4c(c3)OCO4)ccc21 — outcome?
Data returned: inactive

Data request: Assay result, entry O=Cc1ccc2ccc3cccnc3c2n1 — outcome?
Data returned: active

Data request: Assay result, entry O=C(O)c1cc(-c2ccco2)nc2cc3ccccc3cc12 — outcome?
Data returned: inactive

Data request: Assay result, entry O=[As](O)(O)c1ccc(N=Nc2ccc(O)cc2)cc1 — outcome?
Data returned: active

Data request: Assay result, entry NC(=S)NNc1cccc2cccnc12 — outcome?
Data returned: active

Data request: Assay result, entry CC(C(=O)Nc1ccc(C(=O)O)c(O)c1)N1C(=O)/C(=C\c2ccco2)SC1=S (stereo not drawn) — outcome?
Data returned: active

Data request: Assay result, entry CCN1CCc2c(sc(N)c2C(N)=O)C1 — outcome?
Data returned: active

Data request: Assay result, entry O=C(O)CCCCCN1C(=O)C(O)=C(C(=O)/C=C/c2ccccc2)C1c1ccccc1[N+](=O)[O-] (stereo not drawn) — outcome?
Data returned: inactive

Data request: Assay result, entry CN(C)c1ccc(C(c2nnnn2CCOC(=O)Nc2ccc(Cl)cc2)N2CCOCC2)cc1 (stereo not drawn) — outcome?
Data returned: inactive

Data request: Assay result, entry Cc1ccnc(N2C(=O)c3cccc4c([N+](=O)[O-])ccc(c34)C2=O)c1 — outcome?
Data returned: active

Data request: Assay result, entry O=C1/C(=C\c2ccc(Br)cc2)SC(=S)N1NS(=O)(=O)c1ccccc1 — outcome?
Data returned: active

Data request: Assay result, entry O=C(Nc1ccc2nc(-c3ccco3)c(-c3ccco3)nc2c1)N1CCN(c2ccccn2)CC1 — outcome?
Data returned: inactive

Data request: Assay result, entry COc1ccc2cc(/C=C3\SC(=S)NC3=O)c(N3CCOCC3)nc2c1 — outcome?
Data returned: active

Data request: Assay result, entry Cc1ccc(C(=O)N/N=C\c2cc(Br)c(Br)o2)cn1 — outcome?
Data returned: active

Data request: Assay result, entry Nc1cc2c3c(cccc3c1)C(=O)N(CCN1CCCC1)C2=O — outcome?
Data returned: active

Data request: Assay result, entry COc1ccccc1CN1CC(C(=O)NCCN(C)CCc2ccccc2)CCC1=O (stereo not drawn) — outcome?
Data returned: inactive

Data request: Assay result, entry O=C1OC(/C(=C\Nc2cc(Cl)ccc2O)[N+](=O)[O-])c2ccccc21 (stereo not drawn) — outcome?
Data returned: active
